# experimentalTarget: Carbonic anhydrase 9 (Homo sapiens, UniProt Q16790)
# assayRemarks: Inhibition of recombinant human carbonic anhydrase 9 incubated for 15 mins prior to testing measured for 10 to 100 secs by phenol red-based stopped-flow CO2 hydration assay
measuredMetric: pKi
Scale explanation: pKi corresponds to minus log10 of a concentration expressed in moles per litre.

Worked examples follow.
C#CCN(CC#C)CCCCOc1ccc(S(N)(=O)=O)cc1
8.42
C#CCSc1ccc(S(N)(=O)=O)cc1
8.12

Param item: C#CCNc1ccc(S(N)(=O)=O)cc1 ; param system: Carbonic anhydrase 9 (Homo sapiens, UniProt Q16790); output pKi: 6.38

---

# experimentalTarget: Carbonic anhydrase 4 (Homo sapiens)
# Sequence (P22748 whole entry): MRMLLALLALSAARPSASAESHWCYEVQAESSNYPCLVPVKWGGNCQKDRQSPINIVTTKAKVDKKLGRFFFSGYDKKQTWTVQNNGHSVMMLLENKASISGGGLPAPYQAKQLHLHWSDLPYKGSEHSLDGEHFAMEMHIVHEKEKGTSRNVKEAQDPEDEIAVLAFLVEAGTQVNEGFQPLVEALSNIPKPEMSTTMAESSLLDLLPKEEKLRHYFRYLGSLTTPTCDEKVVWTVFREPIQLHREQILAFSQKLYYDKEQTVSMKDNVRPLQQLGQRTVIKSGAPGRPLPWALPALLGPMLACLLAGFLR
# assayRemarks: Inhibition of recombinant human carbonic anhydrase 4 incubated for 15 mins prior to testing measured for 10 to 100 secs by phenol red-based stopped-flow CO2 hydration assay
measuredMetric: Ki

Notebook: C#CCNc1ccc(S(N)(=O)=O)cc1 , Ki read as > 10 µM

---

Quick reference for Ki among some compounds
# experimentalTarget: Carbonic anhydrase 1 (Homo sapiens, UniProt P00915)
# Sequence (P00915 whole entry): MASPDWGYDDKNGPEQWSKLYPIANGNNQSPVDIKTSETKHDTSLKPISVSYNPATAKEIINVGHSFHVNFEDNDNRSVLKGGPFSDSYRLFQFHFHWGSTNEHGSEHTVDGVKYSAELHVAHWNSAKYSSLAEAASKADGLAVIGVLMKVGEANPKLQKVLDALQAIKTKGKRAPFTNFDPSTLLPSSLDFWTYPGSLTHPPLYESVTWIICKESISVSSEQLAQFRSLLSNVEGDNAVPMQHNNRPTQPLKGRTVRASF
# assayRemarks: Inhibition of recombinant human carbonic anhydrase 1 incubated for 6 hrs prior to testing measured for 10 to 100 secs by phenol red-based stopped-flow CO2 hydration assay

Worked examples follow.
C#CCOc1ccc2oc(=O)ccc2c1
> 10 µM
C#CCOc1ccc2c(c1)OS(=O)(=O)C=C2
> 10 µM

Below: the item to evaluate.
Notebook: C#CCOc1ccc2c(c1)C=CS(=O)(=O)O2 , Ki read as > 10 µM

---

Quick reference for Ki among some compounds
# experimentalTarget: Carbonic anhydrase 1 (Homo sapiens)
# assayRemarks: Inhibition of recombinant human carbonic anhydrase 1 incubated for 15 mins prior to testing measured for 10 to 100 secs by phenol red-based stopped-flow CO2 hydration assay
Lab book: enter the figure in nM, no units written.

Worked examples follow.
C#CCNc1ccc(S(N)(=O)=O)cc1
852
C#CCSc1ccc(S(N)(=O)=O)cc1
30.2

Notebook: C#CCN(CC#C)CCCCOc1ccc(S(N)(=O)=O)cc1 , Ki read as 817

---

Quick reference for Ki among some molecules
# experimentalTarget: Carbonic anhydrase 2 (Homo sapiens, UniProt P00918)
# assayRemarks: Inhibition of recombinant human carbonic anhydrase 2 incubated for 6 hrs prior to testing measured for 10 to 100 secs by phenol red-based stopped-flow CO2 hydration assay

C#CCOc1ccc2c(c1)OS(=O)(=O)C=C2
> 10 µM
C#CCOc1ccc2c(c1)C=CS(=O)(=O)O2
> 10 µM

Notebook: C#CCOc1ccc2oc(=O)ccc2c1 , Ki read as > 10 µM

---

Quick reference for pKi among some molecules
# experimentalTarget: UniProt O43570
# Sequence (O43570 whole entry): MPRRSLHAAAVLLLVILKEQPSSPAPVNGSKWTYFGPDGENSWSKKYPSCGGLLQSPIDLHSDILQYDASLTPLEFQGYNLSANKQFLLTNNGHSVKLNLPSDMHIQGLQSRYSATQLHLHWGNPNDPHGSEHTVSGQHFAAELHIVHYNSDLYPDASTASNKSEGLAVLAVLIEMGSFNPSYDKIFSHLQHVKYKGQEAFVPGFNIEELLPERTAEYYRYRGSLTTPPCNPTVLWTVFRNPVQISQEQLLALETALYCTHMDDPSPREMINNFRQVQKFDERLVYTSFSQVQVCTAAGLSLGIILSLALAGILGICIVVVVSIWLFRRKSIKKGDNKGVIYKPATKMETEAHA
# assayRemarks: Inhibition of recombinant human carbonic anhydrase 12 incubated for 6 hrs prior to testing measured for 10 to 100 secs by phenol red-based stopped-flow CO2 hydration assay
Scale explanation: pKi corresponds to minus log10 of a concentration expressed in moles per litre.

C#CCOc1ccc2c(c1)C=CS(=O)(=O)O2
7.35

Notebook: C#CCNc1ccc2c(C)cc(=O)oc2c1 , pKi read as 7.46

Notebook: C#CCOc1ccc2c(c1)OS(=O)(=O)C=C2 , pKi read as 7.52

---

Quick reference for pKi among some compounds
# experimentalTarget: Carbonic anhydrase 2 (Homo sapiens)
# assayRemarks: Inhibition of recombinant human carbonic anhydrase 2 incubated for 15 mins prior to testing measured for 10 to 100 secs by phenol red-based stopped-flow CO2 hydration assay
Scale explanation: pKi corresponds to minus log10 of a concentration expressed in moles per litre.

C#CCSc1ccc(S(N)(=O)=O)cc1
7.53
C#CCN(CC#C)CCCCOc1ccc(S(N)(=O)=O)cc1
9.36

Below: the item to evaluate.
Param item: C#CCNc1ccc(S(N)(=O)=O)cc1 ; param system: Carbonic anhydrase 2 (Homo sapiens); output pKi: 7.02

The reported measurements were obtained from ChEMBL document CHEMBL4359845.
